Below, each entry is listed with its recorded EC50.
- TEST_TARGET: G protein-coupled receptor 119 (GPR-119) (Mesocricetus auratus, UniProt A0A1U8CD06)
- Construct: hamster-derived β-cells containing G protein-coupled receptor 119 (GPR-119), HIT-T15 cells; host or cells: HIT-T15 (hamster pancreatic β-cells)
- Sequence (A0A1U8CD06 1-334): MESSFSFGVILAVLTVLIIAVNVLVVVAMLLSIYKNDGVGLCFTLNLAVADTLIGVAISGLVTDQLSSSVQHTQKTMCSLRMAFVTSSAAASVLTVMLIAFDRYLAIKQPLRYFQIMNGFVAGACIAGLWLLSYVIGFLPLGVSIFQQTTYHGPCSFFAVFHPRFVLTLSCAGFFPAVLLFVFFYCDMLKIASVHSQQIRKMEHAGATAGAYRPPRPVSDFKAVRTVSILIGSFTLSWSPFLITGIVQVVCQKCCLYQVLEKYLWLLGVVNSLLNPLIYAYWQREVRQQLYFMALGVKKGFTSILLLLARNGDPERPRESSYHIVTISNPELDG
- EXPERIMENT_DESCRIPTION: Evaluation of cAMP activity in HIT-T15 cells (HTRF cAMP dynamic kit)
- Format: cell-based, hamster
- CONDITION_LABEL: cAMP activation, 1 h at 37° C., six concentrations, read-out: EC50
Kindly format the answer as number then unit.

Past entries and their recorded results:
CC(C)c1noc(N2CCC(COc3ccc(C4=CCC(C(=O)N5CC[C@@H](F)C5)CC4)cc3)CC2)n1 (stereo partly shown)
42 nM
CC(C)c1noc(N2CCC(COc3ccc(C4=CCC(C(=O)NC[C@@H](O)CO)CC4)nc3)CC2)n1 (stereo partly shown)
500 nM
CC(C)c1noc(N2CCC(COc3ccc(C4=CCC(C(=O)N5CCC[C@@H]5C(N)=O)CC4)cc3F)CC2)n1 (stereo partly shown)
28 nM

Item CON(C)C(=O)C1CC=C(c2ccc(OCC3CCN(C(=O)OC(C)(C)C)CC3)cc2)CC1 (stereo not shown) ; assay system G protein-coupled receptor 119 (GPR-119) (Mesocricetus auratus, UniProt A0A1U8CD06); EC50 reported as 25 nM
